So I've got a bunch of compounds here, and I need their viability at 28.5 h, 10 µM values.
# Measurement Notes: in vitro
# Measurement Context: human, hela cells, % viability
Write the answer as a number in %, unit excluded.

Exercise: Identify the reported viability at 28.5 h, 10 µM for the following entry. CC(=O)NCCSc1ncccc1C(F)(F)F [CBK105296]
Key: 101

Exercise: Identify the reported viability at 28.5 h, 10 µM for the following entry. CC1(C)[C@H](Cc2cc(CC3CCCCC3)on2)C[C@@H]1NC(=O)N1CCOCC1 [CBK289258]
Key: 98.6

Exercise: Identify the reported viability at 28.5 h, 10 µM for the following entry. COc1cc2nc(S)n(CCc3ccc(S(N)(=O)=O)cc3)c(=O)c2cc1OC [CBK268457]
Key: 84.4

Exercise: Identify the reported viability at 28.5 h, 10 µM for the following entry. O=C(O)C1CC=CCC1C(=O)NCc1ccc2c(c1)OCO2 (stereo not drawn) [CBK264209]
Key: 96.4

Exercise: Identify the reported viability at 28.5 h, 10 µM for the following entry. NC1=NNC2=C(c3ccc(F)cc3)NNN12 [CBK093659]
Key: 86

Exercise: Identify the reported viability at 28.5 h, 10 µM for the following entry. CCN1CCCC(CNS(=O)(=O)c2cc(-n3cccn3)ccc2OC)C1 (stereo not drawn) [CBK306997]
Key: 85.3

Exercise: Identify the reported viability at 28.5 h, 10 µM for the following entry. NC(=O)c1cc(C2CCCN(CC(=O)NCc3cccs3)C2)n[nH]1 (stereo not drawn) [CBK305361]
Key: 86.6

Exercise: Identify the reported viability at 28.5 h, 10 µM for the following entry. Cc1cc(C)nc(N/C(=N\C(=S)Nc2cccc(Cl)c2C)NCc2cccnc2)n1 [CBK267254]
Key: 93.5

Exercise: Identify the reported viability at 28.5 h, 10 µM for the following entry. CSc1cc(C)c2c(c1)COC1(CCN(CC3CC3)CC1)O2 [CBK061383]
Key: 94.1

====

# Measurement Notes: in vitro
# Measurement Context: human, hela cells, % viability
Measurement Label: viability at 28.5 h, 10 µM (%)
Write the answer as a number in %, unit excluded.

Exercise: Identify the reported viability at 28.5 h, 10 µM for the following entry. Cc1c(Cl)cccc1S(=O)(=O)Nc1cccc(C(=O)Nc2ccc(F)cc2)c1 [CBK038983]
Key: 99.3

Exercise: Identify the reported viability at 28.5 h, 10 µM for the following entry. O=C(O)c1cccc(NS(=O)(=O)c2ccc(Br)cc2C(F)(F)F)c1 [CBK155724]
Key: 90.9

Exercise: Identify the reported viability at 28.5 h, 10 µM for the following entry. CCN1CC2(CCNCC2)c2ccccc21 [CBK116520]
Key: 90.4

Exercise: Identify the reported viability at 28.5 h, 10 µM for the following entry. COc1cccc(C2C(C(=O)c3ccc(Cl)cc3)=C(O)C(=O)N2CCCN2CCOCC2)c1 (stereo not drawn) [CBK264865]
Key: 105

Exercise: Identify the reported viability at 28.5 h, 10 µM for the following entry. COc1cc(OC)c(NC(=O)CSc2ccccn2)cc1Cl [CBK267303]
Key: 92.5

Exercise: Identify the reported viability at 28.5 h, 10 µM for the following entry. Nc1ncccc1OCCOc1cccnc1N [CBK022067]
Key: 89.3

Exercise: Identify the reported viability at 28.5 h, 10 µM for the following entry. O=C(CCN1C(=O)C2C3CCC(C3)C2C1=O)OCC(=O)c1ccc(Cl)c([N+](=O)[O-])c1 (stereo not drawn) [CBK264124]
Key: 95.2

Exercise: Identify the reported viability at 28.5 h, 10 µM for the following entry. OCc1ccccc1-c1cc(N2CCN(Cc3cccnc3)CC2)n2nccc2n1 [CBK037105]
Key: 98.9

Exercise: Identify the reported viability at 28.5 h, 10 µM for the following entry. Cc1no[n+]([O-])c1COc1cccc(/C=C2\N=C(c3ccccc3)OC2=O)c1 [CBK263454]
Key: 96.3

Exercise: Identify the reported viability at 28.5 h, 10 µM for the following entry. c1ccc2c(c1)CCN(c1nc3cc4c(cc3s1)OCCO4)C2 [CBK287498]
Key: 82.8

Exercise: Identify the reported viability at 28.5 h, 10 µM for the following entry. CS(=O)(=O)Nc1ccccc1C(=O)NCc1ccccn1 [CBK268494]
Key: 106

Exercise: Identify the reported viability at 28.5 h, 10 µM for the following entry. Cc1cc(Cl)c(OCCn2c3ccccc3c3ccccc32)c(Br)c1 [CBK264826]
Key: 92.2

Exercise: Identify the reported viability at 28.5 h, 10 µM for the following entry. CC(=O)Nc1ccc(S(=O)(=O)N(C)CC(=O)O)cc1 [CBK267570]
Key: 97.8

Exercise: Identify the reported viability at 28.5 h, 10 µM for the following entry. O=C(O)Cn1c2ccccc2c2nc3ccccc3nc21 [CBK263649]
Key: 81.1

Exercise: Identify the reported viability at 28.5 h, 10 µM for the following entry. CN(C)c1cccc(-c2cccc(NCC(c3cccnc3)N(C)C)n2)c1 (stereo not drawn) [CBK037697]
Key: 117

Exercise: Identify the reported viability at 28.5 h, 10 µM for the following entry. CC(=O)NCCNC(=O)c1ccc(C)nc1N1CCOCC1 [CBK076453]
Key: 98.6

Exercise: Identify the reported viability at 28.5 h, 10 µM for the following entry. COc1cccc(-c2cnc3[nH]c(=O)n(Cc4ccc(Cl)cc4)c3n2)c1 [CBK064596]
Key: 111

Exercise: Identify the reported viability at 28.5 h, 10 µM for the following entry. c1cn(CC2(Cn3ccnc3)COC2)cn1 [CBK021839]
Key: 108

Exercise: Identify the reported viability at 28.5 h, 10 µM for the following entry. O=C(O)C1=CC(c2ccc(O)cc2)n2ncnc2N1 (stereo not drawn) [CBK286545]
Key: 88.7

Exercise: Identify the reported viability at 28.5 h, 10 µM for the following entry. COc1ccc(CCN2CCC(Oc3nccnc3OCCN3C(=O)CCC3=O)CC2)cc1OC [CBK084359]
Key: 109

Exercise: Identify the reported viability at 28.5 h, 10 µM for the following entry. O=C(O)c1ccc(OCCNS(=O)(=O)c2ccc3ccccc3c2)cc1 [CBK299807]
Key: 83.5

Exercise: Identify the reported viability at 28.5 h, 10 µM for the following entry. COc1ccc(C)cc1S(=O)(=O)N(C)CC(=O)O [CBK267863]
Key: 106

Exercise: Identify the reported viability at 28.5 h, 10 µM for the following entry. CCc1cc2c3c(c(=O)oc2cc1OCc1cc(C(=O)O)oc1C)CCCC3 [CBK264402]
Key: 98.8

Exercise: Identify the reported viability at 28.5 h, 10 µM for the following entry. Cc1c(C(=O)N2CCCC(c3cnccn3)C2)oc2c(F)cccc12 (stereo not drawn) [CBK285302]
Key: 96.3

Exercise: Identify the reported viability at 28.5 h, 10 µM for the following entry. CSc1cc(CC(C)(C)C)c2cccc(F)c2n1 [CBK018791]
Key: 99.8

Exercise: Identify the reported viability at 28.5 h, 10 µM for the following entry. CCOC(=O)c1ccc(NC(=O)Cc2c(C(=O)O)nnn2-c2cccc(C(F)(F)F)c2)cc1 [CBK296932]
Key: 106

Exercise: Identify the reported viability at 28.5 h, 10 µM for the following entry. Cc1cnn(C(C)C(=O)N2CCc3c(nc(N(C)C)nc3N(C)C)C2)c1 (stereo not drawn) [CBK307556]
Key: 109

Exercise: Identify the reported viability at 28.5 h, 10 µM for the following entry. COc1ccc(CN2CCc3cc(OC)c(OC)cc3C2c2ccccc2)cc1CO (stereo not drawn) [CBK286358]
Key: 92.2

Exercise: Identify the reported viability at 28.5 h, 10 µM for the following entry. CC(=O)N1CCc2cc(Nc3ncnc4c3cnn4CCC#N)ccc21 [CBK305950]
Key: 101

Exercise: Identify the reported viability at 28.5 h, 10 µM for the following entry. CCc1nnc(NS(=O)(=O)c2ccc(N/C=C3\C(=O)N(c4ccc(Cl)cc4)N=C3C)cc2)s1 [CBK262416]
Key: 110

Exercise: Identify the reported viability at 28.5 h, 10 µM for the following entry. COC(=O)c1ccc(/C=N/N=C2\NC(=O)C(CC(=O)Nc3ccccc3)S2)cc1 (stereo not drawn) [CBK264483]
Key: 93.6

Exercise: Identify the reported viability at 28.5 h, 10 µM for the following entry. N#Cc1cccc(CN2CCC(Cc3ccccc3)CC2)c1 [CBK126380]
Key: 87.1

Exercise: Identify the reported viability at 28.5 h, 10 µM for the following entry. N#Cc1cccc(Nc2cncc(-c3cccs3)n2)c1 [CBK066030]
Key: 95.4

Exercise: Identify the reported viability at 28.5 h, 10 µM for the following entry. O=C(Nc1cccnc1)c1cnc2cc(C(F)(F)F)ccc2c1O [CBK107474]
Key: 77.8

Exercise: Identify the reported viability at 28.5 h, 10 µM for the following entry. CSc1cccc(NC(=O)CN(C)S(=O)(=O)c2ccc3ccccc3c2)c1 [CBK266708]
Key: 86.2

Exercise: Identify the reported viability at 28.5 h, 10 µM for the following entry. CN1CCOc2cc(S(=O)(=O)Nc3cccc(-c4cnco4)c3)ccc21 [CBK067119]
Key: 82.9

Exercise: Identify the reported viability at 28.5 h, 10 µM for the following entry. CCOC(=O)c1cnn(-c2cc(Oc3ccccc3)ncn2)c1N [CBK098284]
Key: 105

Exercise: Identify the reported viability at 28.5 h, 10 µM for the following entry. CCOC(=O)c1c(NC(=O)CSc2nc3ccccc3s2)sc2c1CCC2 [CBK263220]
Key: 93

Exercise: Identify the reported viability at 28.5 h, 10 µM for the following entry. Cc1cc(Cl)ccc1OCC(=O)Nc1ccc(O)cc1C(=O)O [CBK131706]
Key: 86

Values compiled from paper PMC12040169.
